Please provide measured melting point for the entries that follow.

Per the record, "Cc1ccc(-c2cc(N/N=C(/C(=O)c3cccs3)C(=O)C(F)(F)F)[nH]n2)cc1" has melting point of 220 °C

Reported melting point for "CCCCNC(=O)OCC#CI" was 66 °C

For this compound ( "COc1ccc(Br)c(C)c1C(=O)O" ), measured melting point is 163 °C

// melting point lookup, compound = CC(=O)OC1CCC2C3CCC4=CC(=O)CCC4(C)C3CCC12C (stereo not given) , result: 140 °C

The compound O=S1(=O)CC(O)C(Cl)C1 (stereo not given) showed melting point equal to 163 to 165 °C

Record summary for "CC(C)OC=O" : reported melting point = -80 °C

Input "Cc1cncc([N+](=O)[O-])c1" . Output melting point: 96 °C

So, "O=C1CC(=O)NCCNCCNCCNC(=O)CC(=O)NCCNCCNCCN1" ? Its melting point was 199 to 202 °C

Note to self: melting point recorded for "O=C(O)C1CCN(c2nccc(C(F)(F)F)n2)CC1" was 140 to 142 °C

Recorded result, "NS(=O)(=O)c1ccc(SCCCCCO)cc1" , melting point: 103 °C

Lab note: measured melting point of "O=C1Cc2cc(Br)ccc2N1" was 219 to 221 °C

The compound identified as CCN1CCCC1CNC(=O)c1cc(S(=O)(=O)CC)ccc1OC (stereo not given) registered its melting point at 182 °C

Input O=C(O)C(O)C(O)C(OC1OC(CO)C(O)C(O)C1O)C(O)CO (stereo not given) . Output melting point: 113 to 118 °C

Reported melting point of "COC(=O)[C@H](C)On1c(C)csc1=S" : 69.8 °C

compound "S=C(NN=Cc1c(-c2ccc(Cl)cc2)[nH]c2ccccc12)Nc1ccc(Cl)cc1" , melting point observed: 215 to 217 °C

"N#C/C(=N\Nc1c(Cl)cc(Cl)cc1Cl)c1nc2ccccc2[nH]1" has a reported melting point of 263 °C

According to the records, this compound "Nc1nc(O)cc(C(F)(F)F)n1" displays melting point of 290 °C

Looking up "Cn1cnc(C(=O)Oc2c(F)c(F)c(F)c(F)c2F)c1" , I see its melting point listed as 131 to 132 °C

Lab book: melting point of "Cc1c(O)c(Br)c(Br)c(Br)c1Br" noted as 209 to 213 °C

melting point recorded for this compound, "Cn1c(=O)c(C2=NNC(=O)C2=CNc2ncccn2)c(O)c2ccccc21" , is 279 °C

What the record says about "CSC(=CC(=C(C#N)C#N)c1ccccc1)SC" : melting point is 117 to 121 °C

Kindly note the recorded melting point for "Fc1cc2c(cc1F)Oc1cc(Br)c(Br)cc1O2" , which is 210 °C

Just so you know, measured melting point for "O=C1c2ccccc2C(=O)C1c1ccc(Cl)cc1" came out at 146 °C

Sample "Cc1ccc(S(=O)(=O)NN=Cc2coc(C=Cc3ccccc3)n2)cc1" ; melting point observed: 177 to 179 °C

// melting point value for "CNC(=O)Oc1cccc(C(C)C)c1" : 73 °C

###

Consider the following compounds; for each one, report its melting point.
Your answer should be a plain number; it is taken to be in °C.

Note to self: melting point recorded for "COc1ccc(/N=N/c2c(N)nn3c(C)cc(=O)[nH]c23)cc1" was 276

The compound identified as "O=[N+]([O-])c1ccc(O)cc1O" registered its melting point at 122

Summary for this compound, "Nc1cc2nc3c(cc2cc1C=O)CCCC3" : melting point is 218

Reported melting point ( "CSc1ccc2ccccc2c1" ) = 63

Recorded result, "O=Nc1ccc(O)c(N=O)c1O" , melting point: 168

Memo: "O=C(O)c1cc2sccc2[nH]1" , reported melting point: 180

Entry under test: "CCNc1nc(NC(C)(C)C)nc(OC)n1" . Its melting point was 124

// sample NS(=O)(=O)c1cc2c(cc1Cl)NC(CSCC(F)(F)F)NS2(=O)=O (stereo not drawn) , its melting point was 206

So, "c1ccc2cc(Nc3ccc(Nc4ccc5ccccc5c4)cc3)ccc2c1" ? Its melting point was 235

Entry under test: "N#Cc1[nH]cnc2ncnc1-2" . Its melting point was 188

compound CC(=O)OCC1OC(OC2OC=CC3C(OC(=O)c4ccc(OC(C)=O)cc4)C4OC4(COC(C)=O)C23)C(OC(C)=O)C(OC(C)=O)C1OC(C)=O (stereo not drawn) , melting point observed: 135

Lookup result for C=C(C)C1CCC2(CO)CCC3(C)C(CCC4C5(C)CCC(O)C(C)(C)C5CCC43C)C12 (stereo not drawn) ; measured melting point: 250

Record summary for "Cc1cccc(Br)c1C(=O)O" : reported melting point = 109

Kindly note the recorded melting point for "CCCCCCOc1ccccc1" , which is -19

// "Cc1ccc(Br)c(C)c1[N+](=O)[O-]" : melting point value = 70

For this compound ( Cc1ccc2c(c1Cc1ccccc1)CCC1C2CCC2CCCCC21C (stereo not drawn) ), measured melting point is 95

Form field melting point, entry "C=C(C(=O)O)c1ccccc1" : 106

Record "Cc1cc(C)c(C=O)c(C)c1" , field melting point: 14

# compound "O=C(O)c1cccc(-c2ccccc2)c1O" ; its melting point = 186

For this compound ( "Clc1ccc(C=NCCN=Cc2ccc(Cl)cc2)cc1" ), measured melting point is 125

Entry "COc1c2occc2cc2ccc(=O)oc12" , melting point reported as 148

For "c1ccc(N2CCNCC2)cc1" the compound record lists melting point as 18.8

// melting point lookup, compound = "Cc1ccc(C(=O)c2noc(-c3ccc([N+](=O)[O-])cc3)c2S(=O)(=O)c2ccccc2)cc1" , result: 170

GET /value?item= "CN(C)c1ccc2c(c1)Sc1cc(N(C)C)ccc1N2C(=O)c1ccccc1" &field=melting point returns 195

melting point in this record for "O=C1NC(=O)C([N+](=O)[O-])C(=O)N1" : 180

Sample "NC(=O)/C(=C\c1ccc(Cl)cc1Cl)c1nc2ccccc2s1" ; melting point observed: 263

For this compound ( CC12CCC3c4ccc(OC5CCCC5)cc4CCC3C1CC(O)C2O (stereo not drawn) ), measured melting point is 99

Measured melting point of "O=C(Nc1cccc2ccccc12)Nc1cccc2ccccc12" : 296

The compound listed as "CCN(CC)c1nc(Cl)nc(N(CC)CC)n1" shows melting point equal to 27

###

Please go through the items and note down their melting point.
Only the number, expressed in °C, is required.

melting point recorded for this compound, "CC(C)(C)CCl" , is -20

Reported melting point of CC(C)CCCC(C)CCCC(C)CCCCC(C)CCCC(C)CCCC(C)C (stereo not drawn) : -38

So for "Nc1c(F)cc(F)cc1Cl" , the logged melting point turned out to be 30

Entry "CCOC(=O)c1sc(-c2ccccn2)nc1CBr" — recorded melting point = 102

// sample "COc1ccc(Br)cc1F" , its melting point was 16

So for "Nc1c(Cl)c(Cl)cc(Cl)c1Cl" , the logged melting point turned out to be 107

The recorded melting point for entry "O=C1C=CC(=O)c2ccccc21" equals 128

For record "O=C1OC(c2ccc([N+](=O)[O-])cc2)=NC1=Cc1ccccc1" the listed melting point is 236

Record "O=C(/C=C/c1ccc(-c2ccc([N+](=O)[O-])cc2)o1)c1ccco1" . Reported melting point: 187

get_value(item= "CC#CCCCCCCCC" , readout=melting point) returns -30.1

compound "Nc1cc(C(F)(F)F)ccc1[N+](=O)[O-]" , melting point observed: 100

The compound listed as "CC(=O)N(C)c1ccccc1C" has a reported melting point of 55.5

Query "CC(C)CC(C)(C)CO" yields melting point of -70

Entry "O=C1Cc2cccc3cccc1c23" — recorded melting point = 121

GET /value?item= O=C(NC(CO)Cc1ccccc1)OCc1ccccc1 (stereo not drawn) &field=melting point returns 94

What the record says about "Clc1nc(Cl)nc(Cl)n1" : melting point is 154

Quick note, melting point for "C=CCc1ccccc1" landed at -40

For this compound ( "COC(=O)CCCCCC(=O)OC" ), measured melting point is -21

melting point reported for this compound "O=[N+]([O-])c1cccc(F)c1" : 41

Consider "Cc1c(C)c(C)c(C#N)c(C)c1C" . Its measured melting point is 159

Record "CC(=O)c1c(C)c[nH]c1C" . Reported melting point: 138

The recorded melting point for "C#CCC" is -126

So, "O=c1ccc2cc3ccoc3c(O)c2o1" ? Its melting point was 252

Looking up COC1OC(C(=O)O)C(OC2OC(C(=O)O)C(OC)C(O)C2O)C(O)C1O (stereo not drawn) , I found its melting point recorded as 300

For record COC(=O)CCC(C)C1CCC2C3C(OC(C)=O)CC4CC(OC(C)=O)CCC4(C)C3CC(=O)C12C (stereo not drawn) the listed melting point is 178

# melting point of "NC(=O)c1cncc(Br)c1" = 226

The reported value for "CCCCI" in terms of melting point is -103

Note to self: melting point recorded for "Cc1ccc(C(N)=O)cn1" was 197

The recorded melting point for entry "N#C/C(=C/c1ccc(F)cc1)c1nc(-c2ccc(Cl)cc2)cs1" equals 184

Measured melting point, "CC1=NOC(=O)C1=NNc1ccccc1Cl" : 168

Quick note, melting point for "CC(=Nc1cccc(N)c1)c1c(O)c2ccccc2n(-c2ccccc2)c1=O" landed at 200

Please fill in: melting point reported for "CCn1c(-c2ccccc2)cc2ccccc21" = 86

Given item "CCCCOC(=O)COc1cc(Cl)c(Cl)cc1Cl" , the value recorded as its melting point is 28.5

Entry "COC(=O)c1ccc(I)cc1O" ; melting point = 69

get_value(item= CC1C(=O)C23C4CC5C(C)(CO)CCCC56COC(CC1C2OC(C)(C)O4)C63 (stereo not drawn) , readout=melting point) returns 220
